The measured values listed here are drawn from patent US20140087995A1.

I'd be grateful if you could share measured hCTR funct. EC50 for these entries.
- testSystem: T1, human calcitonin receptor (human, UniProt P30988 25-474)
- T1 sequence (looked up): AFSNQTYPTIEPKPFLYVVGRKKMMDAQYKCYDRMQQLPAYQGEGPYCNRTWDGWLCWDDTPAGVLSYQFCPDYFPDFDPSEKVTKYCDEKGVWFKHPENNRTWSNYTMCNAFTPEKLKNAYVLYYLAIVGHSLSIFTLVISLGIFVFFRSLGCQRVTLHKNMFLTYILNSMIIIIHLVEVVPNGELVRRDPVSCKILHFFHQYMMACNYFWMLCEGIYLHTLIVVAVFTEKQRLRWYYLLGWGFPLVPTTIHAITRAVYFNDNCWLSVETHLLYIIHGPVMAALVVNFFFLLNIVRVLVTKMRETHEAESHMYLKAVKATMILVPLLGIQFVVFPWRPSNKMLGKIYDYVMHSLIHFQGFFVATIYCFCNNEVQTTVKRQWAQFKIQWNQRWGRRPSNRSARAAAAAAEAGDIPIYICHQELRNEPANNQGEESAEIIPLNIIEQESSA
- measurementNotes: cell-based or functional assay
Numbered stars: 1 amine (or outer) side, 2 acyl side, 3 side chain; on linkers, the order of the positions; unused ones are H or OH. Bridge positions count the residues as written; N and C are the ends. Side chains are listed from the residue outwards. Ends that are not written are not given here. * marks the point of attachment. C20 diacid = O=C(O)CCCCCCCCCCCCCCCCCCC(=O)*; γGlu = O=C(O)[C@H](CCC(=O)[*:2])N[*:1]; AEEA = NCCOCCOCC(=O)O
Respond numerically; units are nM and should not be typed.

Given the binder K([AEEA-γGlu-C20 diacid])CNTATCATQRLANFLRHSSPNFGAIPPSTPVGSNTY-NH2 (disulfide 2-7, Synthetic acylated analogue of human amylin; also called compound 53) , write its reported hCTR funct. EC50.
0.625

Given the binder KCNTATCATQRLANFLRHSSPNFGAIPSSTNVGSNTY (C20 diacid-gGlu-2xOEG on the alpha amino group of the N-terminal residue; disulfide bridge Cys2-Cys7; C-terminal amide, Synthetic acylated analogue of human amylin; also called compound 24) , write its reported hCTR funct. EC50.
10

Given the binder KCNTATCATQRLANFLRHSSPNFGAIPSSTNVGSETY (C20 diacid-gGlu on the alpha amino group of the N-terminal residue; disulfide bridge Cys2-Cys7; C-terminal amide, Synthetic acylated analogue of human amylin; also called compound 23) [N^α1-[(4S)-4-carboxy-4-(19-carboxynonadecanoylamino)butanoyl]-[Arg17,Pro21,Pro27,Glu35]-h-amylin] , write its reported hCTR funct. EC50.
3.02

Given the binder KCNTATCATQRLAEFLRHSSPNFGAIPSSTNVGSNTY (C20 diacid-gGlu on the alpha amino group of the N-terminal residue; disulfide bridge Cys2-Cys7; C-terminal amide, Synthetic acylated analogue of human amylin; also called compound 9) [N^α1-[(4S)-4-carboxy-4-(19-carboxynonadecanoylamino)butanoyl]-[Glu14,Arg17,Pro21,Pro27]-h-amylin] , write its reported hCTR funct. EC50.
1.29

Given the binder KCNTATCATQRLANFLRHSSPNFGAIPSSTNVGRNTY (C20 diacid-gGlu on the alpha amino group of the N-terminal residue; disulfide bridge Cys2-Cys7; C-terminal amide, Synthetic acylated analogue of human amylin; also called compound 39) [N^α1-[(4S)-4-carboxy-4-(19-carboxynonadecanoylamino)butanoyl]-[Arg17,Pro21,Pro27,Arg34]-h-amylin] , write its reported hCTR funct. EC50.
2.52

Given the binder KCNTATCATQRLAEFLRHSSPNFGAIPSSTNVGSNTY (C20 diacid-gGlu-2xOEG on the alpha amino group of the N-terminal residue; disulfide bridge Cys2-Cys7; C-terminal amide, Synthetic acylated analogue of human amylin; also called compound 19) , write its reported hCTR funct. EC50.
5.32

Given the binder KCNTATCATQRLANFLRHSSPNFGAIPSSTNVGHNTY (C20 diacid-gGlu on the alpha amino group of the N-terminal residue; disulfide bridge Cys2-Cys7; C-terminal amide, Synthetic acylated analogue of human amylin; also called compound 40) [N^α1-[(4S)-4-carboxy-4-(19-carboxynonadecanoylamino)butanoyl]-[Arg17,Pro21,Pro27,His34]-h-amylin] , write its reported hCTR funct. EC50.
2.68

Given the binder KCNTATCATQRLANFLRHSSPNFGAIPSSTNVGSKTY (C20 diacid-gGlu on the alpha amino group of the N-terminal residue; disulfide bridge Cys2-Cys7; C-terminal amide, Synthetic acylated analogue of human amylin; also called compound 34) [N^α1-[(4S)-4-carboxy-4-(19-carboxynonadecanoylamino)butanoyl]-[Arg17,Pro21,Pro27,Lys35]-h-amylin] , write its reported hCTR funct. EC50.
2.62
